# Target or test system: Sigma intracellular receptor 2 (Rattus norvegicus, UniProt Q5U3Y7)
# Sequence (Q5U3Y7 whole entry): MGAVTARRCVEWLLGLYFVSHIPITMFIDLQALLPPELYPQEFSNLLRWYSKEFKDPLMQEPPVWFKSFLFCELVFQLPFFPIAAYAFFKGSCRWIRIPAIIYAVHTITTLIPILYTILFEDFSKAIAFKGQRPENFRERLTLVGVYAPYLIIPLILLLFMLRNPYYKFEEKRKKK
# Assay protocol: Displacement of [3H]-DTG from sigma2 receptor in rat liver membranes after 120 mins by liquid scintillation counting
# Format: cell membranes, Membrane
So I've got a bunch of compounds here, and I need their log10 Ki values.
Plainly stated, the numbers are log10 of Ki given in nM.

Give one value of log10 Ki per listed compound.
1. C[C@H]1CN(CC2CCCCC2)CCCN1Cc1ccc(Cl)cc1
2. COc1ccc(CN2CCCN(Cc3ccccc3)[C@@H](C)C2)cc1
3. CCCCN1CCCN(CCCCc2ccccc2)[C@H](Cc2ccccc2)C1
4. CCCCN1CCCN(CCCC)[C@@H](Cc2ccccc2)C1

Solution:
[1.71, 1.66, 2.97, 2.44]

Problem: Fill in: log10 Ki of "CCCCN1CCCN(C)[C@H](Cc2ccccc2)C1" is ___
Solution: 3.00

---

# Target or test system: C-8 sterol isomerase ERG2 (Saccharomyces cerevisiae S288c) (UniProt P32352)
# Sequence (P32352 whole entry, looked up): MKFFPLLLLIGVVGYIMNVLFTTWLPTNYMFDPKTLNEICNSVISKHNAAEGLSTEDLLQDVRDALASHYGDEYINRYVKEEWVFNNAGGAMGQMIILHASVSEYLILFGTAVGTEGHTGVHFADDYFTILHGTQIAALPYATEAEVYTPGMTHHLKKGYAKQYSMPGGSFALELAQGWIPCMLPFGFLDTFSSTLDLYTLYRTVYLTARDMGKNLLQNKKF
# Assay protocol: Inhibition of yeast sterol-delta8/7-isomerase assessed as accumulation of cholesta-8-en-3beta-ol at 50 uM
Activity calls are given as the source filed them. The calls are words filed in the database; no cut-off is given here.
Measured attribute: inhibition

CCCCN1CCCN(Cc2ccccc2)[C@@H](C)C1    inactive
COc1ccc(CN2CCCN(Cc3ccccc3)[C@@H](C(C)C)C2)cc1    Active
CCCCN1CCCN(Cc2ccccc2)[C@@H](Cc2ccccc2)C1    inactive
CN1CCCN(Cc2ccccc2)[C@H](Cc2ccccc2)C1    Active

Give one value of inhibition per listed compound.
1. COc1ccc(CN2CCCN(Cc3ccccc3)[C@@H](Cc3ccccc3)C2)cc1
2. C[C@H]1CN(CC2CCCCC2)CCCN1Cc1ccccc1
3. CCCCN1CCCN(Cc2ccccc2)[C@H](C)C1
4. c1ccc(C[C@H]2CNCCCN2Cc2ccccc2)cc1

Solution:
["inactive", "inactive", "inactive", "inactive"]

---

# Target or test system: Sigma non-opioid intracellular receptor 1 (Cavia porcellus, UniProt Q60492)
# Sequence (Q60492 whole entry): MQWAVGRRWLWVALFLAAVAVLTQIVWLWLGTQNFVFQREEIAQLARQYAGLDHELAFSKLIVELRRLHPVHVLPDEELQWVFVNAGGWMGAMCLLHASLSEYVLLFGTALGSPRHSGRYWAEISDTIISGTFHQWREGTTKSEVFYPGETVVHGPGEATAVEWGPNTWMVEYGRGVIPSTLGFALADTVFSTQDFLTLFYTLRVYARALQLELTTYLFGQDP
# Assay protocol: Displacement of [3H]-pentazocine from sigma1 receptor in guinea pig brain membranes after 120 mins by liquid scintillation counting
Grouping by measured Ki is done with the following cut points: A = under 5 nM, B = from 5 nM up to 30 nM, C = 30 nM and over

Example results:
COc1ccc(CN2CCCN(Cc3ccccc3)[C@@H](Cc3ccccc3)C2)cc1    B
COc1ccc(CN2CCCN(Cc3ccccc3)[C@@H](C(C)C)C2)cc1    B
CCCCN1CCCN(Cc2ccccc2)[C@H](Cc2ccccc2)C1    A
C[C@H]1CN(CCCCc2ccccc2)CCCN1Cc1ccccc1    A
OCC(c1ccccc1)N1CCCN(Cc2ccccc2)[C@H](Cc2ccccc2)C1 (some centres undefined)    B

Problem: Class? Entry: "c1ccc(CCCN2CCCN(Cc3ccccc3)[C@H](Cc3ccccc3)C2)cc1"
Solution: B

Problem: Class? Entry: "CCCCN1CCCN(Cc2ccccc2)[C@@H](C)C1"
Solution: A

Problem: Class? Entry: "c1ccc(CCN2CCCN(Cc3ccccc3)[C@H](Cc3ccccc3)C2)cc1"
Solution: C
